- Test system: Monocotyledonous and dicotyledonous test plants
- method_description: Herbicidal action prior to emergence of the plants (pre-emergence action), Example B1
- Format: in vivo
- assay_context: preemergence application, 250 g/ha, BRAPL, evaluated after 4 weeks; 100%=total damage, 0%=no damage
attribute_measured: herbicidal damage, BRAPL (%)
Answer format: numeric, % implied, no suffix.

Please review the following examples before continuing.
| molecule | herbicidal damage, BRAPL [%] |
| --- | --- |
| Cc1nnc2c(C(=O)C3C(=O)C4CCC(C4)C3=O)ccc(C(F)(F)F)n12 (stereo not drawn) | 70 |
| CC1(C)C(=O)C(C(=O)c2ccc(C(F)(F)F)n3cnnc23)=C(O)C(C)(C)C1=O | 100 |

Then there is this molecule:
QUERY: Using the record for O=C(C1=C(O)C2CCC(C2)C1=O)c1ccc(C(F)(F)F)n2nc(Cl)nc12 (stereo not drawn) , report its herbicidal damage, BRAPL.
RESULT: 50

----------
- System: Monocotyledonous and dicotyledonous test plants
- method_description: Herbicidal action prior to emergence of the plants (pre-emergence action), Example B1
- Type: in vivo
- assay_context: preemergence application, 250 g/ha, ABUTH, evaluated after 4 weeks; 100%=total damage, 0%=no damage
Reported values of herbicidal damage, ABUTH for individual entries
Answer format: numeric, % implied, no suffix.

QUERY: Using the record for CCCC1CCC(=O)C(C(=O)c2ccc(C(F)(F)F)n3c(C)nnc23)=C1O (stereo not drawn) [41.6] , report its herbicidal damage, ABUTH.
RESULT: 70

QUERY: Another compound to look at: Cc1nc2c(C(=O)C3=C(O)CCCC3=O)ccc(C(F)(F)F)n2n1 [Compound 11.3]
RESULT: 70

QUERY: Another compound to look at: CCSc1nnc2c(C(=O)C3=C(O)C4CCC(C4)C3=O)ccc(C(F)(F)F)n12 (stereo not drawn) [Compound 1.212]
RESULT: 70
